MEASURED_ON: SARS-COV-2 Spike, D614G (SARS-COV-2, UniProt P0DTC2 14-1273)
PROCEDURE_DETAILS: cell-based or functional assay

{"BINDER": "REGN10987 (antibody, V domains shown) VH: QVQLVESGGGVVQPGRSLRLSCAASGFTFSNYAMYWVRQAPGKGLEWVAVISYDGSNKYYADSVKGRFTISRDNSKNTLYLQMNSLRTEDTAVYYCASGSDYGDYLLVYWGQGTLVTVSS VL: QSALTQPASVSGSPGQSITISCTGTSSDVGGYNYVSWYQQHPGKAPKLMIYDVSKRPSGVSNRFSGSKSGNTASLTISGLQSEDEADYYCNSLTSISTWVFGGGTKLTVL", "pseudovirus neutralization IC50 (nM)": 0.0131}
